- System Name: ATM (Homo sapiens)
- Construct: detecting phosphorylation of Chk2 in a human non-small cell lung cancer cell line NCI-H460 (ATCC company); host or cells: NCI-H460 human non-small cell lung cancer cells
- Sequence (Q13315 whole entry): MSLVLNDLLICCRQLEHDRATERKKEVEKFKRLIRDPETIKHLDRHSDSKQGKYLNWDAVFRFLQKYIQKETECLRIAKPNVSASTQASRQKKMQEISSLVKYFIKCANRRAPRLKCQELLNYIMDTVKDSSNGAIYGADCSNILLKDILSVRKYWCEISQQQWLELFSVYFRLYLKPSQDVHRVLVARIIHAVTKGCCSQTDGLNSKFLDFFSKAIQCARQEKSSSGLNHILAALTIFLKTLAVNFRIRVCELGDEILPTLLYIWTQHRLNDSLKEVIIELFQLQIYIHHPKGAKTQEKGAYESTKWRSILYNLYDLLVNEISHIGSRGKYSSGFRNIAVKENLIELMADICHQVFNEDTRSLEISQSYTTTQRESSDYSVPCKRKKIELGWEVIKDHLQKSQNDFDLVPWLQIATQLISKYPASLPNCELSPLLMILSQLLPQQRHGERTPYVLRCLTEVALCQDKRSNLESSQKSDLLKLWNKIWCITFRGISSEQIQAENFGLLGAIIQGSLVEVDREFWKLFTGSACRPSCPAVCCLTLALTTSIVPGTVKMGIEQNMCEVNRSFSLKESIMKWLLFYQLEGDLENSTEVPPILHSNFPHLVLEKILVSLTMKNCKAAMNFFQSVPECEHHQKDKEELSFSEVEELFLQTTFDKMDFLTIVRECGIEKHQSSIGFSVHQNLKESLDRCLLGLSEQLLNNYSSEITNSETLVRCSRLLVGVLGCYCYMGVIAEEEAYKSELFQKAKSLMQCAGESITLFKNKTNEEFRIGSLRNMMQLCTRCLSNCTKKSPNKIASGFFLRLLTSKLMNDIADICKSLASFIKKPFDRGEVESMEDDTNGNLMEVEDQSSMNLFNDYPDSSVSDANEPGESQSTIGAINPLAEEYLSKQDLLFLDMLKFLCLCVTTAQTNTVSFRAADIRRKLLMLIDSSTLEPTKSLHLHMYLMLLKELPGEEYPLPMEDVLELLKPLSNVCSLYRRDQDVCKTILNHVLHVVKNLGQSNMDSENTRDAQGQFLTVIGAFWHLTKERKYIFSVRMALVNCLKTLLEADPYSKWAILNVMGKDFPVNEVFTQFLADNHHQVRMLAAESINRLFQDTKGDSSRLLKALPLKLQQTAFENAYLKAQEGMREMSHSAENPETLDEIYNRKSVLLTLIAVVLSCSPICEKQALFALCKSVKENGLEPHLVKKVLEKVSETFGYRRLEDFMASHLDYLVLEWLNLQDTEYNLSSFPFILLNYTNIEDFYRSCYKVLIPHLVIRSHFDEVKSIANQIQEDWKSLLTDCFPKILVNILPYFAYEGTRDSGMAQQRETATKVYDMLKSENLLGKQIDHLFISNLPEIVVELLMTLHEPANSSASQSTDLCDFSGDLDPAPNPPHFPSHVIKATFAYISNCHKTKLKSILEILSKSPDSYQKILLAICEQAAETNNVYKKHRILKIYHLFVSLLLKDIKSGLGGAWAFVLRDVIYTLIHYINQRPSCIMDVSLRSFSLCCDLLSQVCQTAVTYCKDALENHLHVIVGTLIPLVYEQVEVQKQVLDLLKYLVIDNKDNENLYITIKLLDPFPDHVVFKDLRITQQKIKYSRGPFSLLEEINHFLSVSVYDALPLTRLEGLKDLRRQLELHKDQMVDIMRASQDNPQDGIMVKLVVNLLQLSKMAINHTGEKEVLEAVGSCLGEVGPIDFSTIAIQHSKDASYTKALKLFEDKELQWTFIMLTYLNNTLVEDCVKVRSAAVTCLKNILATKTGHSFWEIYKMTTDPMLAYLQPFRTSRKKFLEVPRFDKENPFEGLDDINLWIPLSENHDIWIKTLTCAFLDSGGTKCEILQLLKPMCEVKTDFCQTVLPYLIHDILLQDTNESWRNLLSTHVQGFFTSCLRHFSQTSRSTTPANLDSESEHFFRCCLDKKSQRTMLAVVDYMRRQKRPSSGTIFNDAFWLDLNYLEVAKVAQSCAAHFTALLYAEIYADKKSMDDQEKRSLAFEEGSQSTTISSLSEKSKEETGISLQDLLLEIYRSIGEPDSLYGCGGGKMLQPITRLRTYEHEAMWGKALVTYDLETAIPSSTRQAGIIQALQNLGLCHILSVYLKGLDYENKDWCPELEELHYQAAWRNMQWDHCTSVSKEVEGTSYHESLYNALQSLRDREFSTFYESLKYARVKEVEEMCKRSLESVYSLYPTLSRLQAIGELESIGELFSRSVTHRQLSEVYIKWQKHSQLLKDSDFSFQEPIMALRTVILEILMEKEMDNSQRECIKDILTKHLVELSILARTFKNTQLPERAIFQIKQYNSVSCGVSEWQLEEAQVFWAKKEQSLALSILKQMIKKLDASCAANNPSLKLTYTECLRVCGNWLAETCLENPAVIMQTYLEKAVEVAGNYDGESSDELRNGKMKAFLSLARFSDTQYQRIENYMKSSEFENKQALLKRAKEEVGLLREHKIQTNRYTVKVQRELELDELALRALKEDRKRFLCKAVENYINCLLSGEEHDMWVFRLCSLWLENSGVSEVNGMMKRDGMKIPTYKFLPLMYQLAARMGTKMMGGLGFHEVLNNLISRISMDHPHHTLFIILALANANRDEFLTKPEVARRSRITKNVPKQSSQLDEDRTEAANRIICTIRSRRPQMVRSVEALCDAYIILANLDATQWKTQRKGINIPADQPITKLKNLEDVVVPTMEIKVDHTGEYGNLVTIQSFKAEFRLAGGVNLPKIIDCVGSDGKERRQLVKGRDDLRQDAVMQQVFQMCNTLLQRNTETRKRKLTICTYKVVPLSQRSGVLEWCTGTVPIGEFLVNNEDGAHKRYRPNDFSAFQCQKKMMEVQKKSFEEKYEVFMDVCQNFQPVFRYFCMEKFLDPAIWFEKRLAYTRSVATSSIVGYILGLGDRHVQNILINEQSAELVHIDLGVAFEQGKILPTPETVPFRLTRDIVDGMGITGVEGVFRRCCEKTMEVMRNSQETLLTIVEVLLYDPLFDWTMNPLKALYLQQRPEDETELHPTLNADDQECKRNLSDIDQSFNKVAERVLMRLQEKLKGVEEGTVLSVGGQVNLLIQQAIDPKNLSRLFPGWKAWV
- Assay Name: ATM inhibition test (phosphorylation of Chk2 generated by ionizing radiation, AlphaScreen SureFire)
- Type: cell-based
- Test Parameters: phosphorylated Chk2 in NCI-H460 cells, ionizing radiation 8Gy, 1 hour after test compound treatment; read-out: ATM inhibitory activity
Result Type: IC50

query: Consider the compound shown here: O=c1cc(N2CCOCC2)cc(-c2cccc3c2Sc2ccc(NCCN4CCC(F)(F)CC4)cc2S3)[nH]1 [Example 1-10-1] What is its recorded IC50?
result: 100 to 500 nM

query: Consider the compound shown here: Cc1ccc(C(Nc2ccc3c(c2)Sc2cccc(-c4cc(N5CCOCC5)cc(=O)[nH]4)c2S3)[C@@H]2CN(C)CCO2)nc1 (single isomer, unassigned) [Example 1-56-11] What is its recorded IC50?
result: < 100 nM

query: Consider the compound shown here: Cc1cccc(CNc2ccc3c(c2)Cc2ccnc(-c4cc(N5CCOCC5)cc(=O)[nH]4)c2O3)n1 [Example 2-41-2] What is its recorded IC50?
result: < 100 nM

query: Consider the compound shown here: CC(Nc1ccc2c(c1)Sc1cccc(-c3cc(N4CCOCC4)cc(=O)[nH]3)c1S2)c1nccs1 (stereo not drawn) [Example 1-12-67] What is its recorded IC50?
result: 100 to 500 nM

query: Consider the compound shown here: CNCC(Nc1ccc2c(c1)Sc1cccc(-c3cc(N4CCOCC4)cc(=O)[nH]3)c1S2)c1cc(C)ccn1 (stereo not drawn) [Example 1-19-3] What is its recorded IC50?
result: < 100 nM

query: Consider the compound shown here: O=c1cc(N2CCOCC2)cc(-c2cccc3c2Oc2ccc(NCCc4cccnc4)cc2C3)[nH]1 [Example 2-12] What is its recorded IC50?
result: 100 to 500 nM

query: Consider the compound shown here: CC(CN1CCN(Cc2cccnc2)CC1)Nc1ccc2c(c1)Sc1cccc(-c3cc(N4CCOCC4)cc(=O)[nH]3)c1S2 (stereo not drawn) [Example 1-15-3] What is its recorded IC50?
result: 100 to 500 nM

query: Consider the compound shown here: CCNc1cncc(CNc2ccc3c(c2)Cc2cccc(-c4cc(N5CCOCC5)cc(=O)[nH]4)c2O3)c1 [Example 2-6-1] What is its recorded IC50?
result: 100 to 500 nM

query: Consider the compound shown here: O=c1cc(N2CCOCC2)cc(-c2cccc3c2Sc2ccc(NCCN4CCSCC4)cc2S3)[nH]1 [Example 1-16-4] What is its recorded IC50?
result: < 100 nM

query: Consider the compound shown here: CC(Nc1ccc2c(c1)Sc1cccc(-c3cc(N4CCOCC4)cc(=O)[nH]3)c1S2)[C@H](C)N1CCOCC1 (stereo partly drawn) [Example 1-21-5] What is its recorded IC50?
result: 100 to 500 nM

query: Consider the compound shown here: O=c1cc(N2CCOCC2)cc(-c2cccc3c2Oc2ccc(NCc4cncc(C5CC5)c4)cc2S3)[nH]1 [Example 4-8-7] What is its recorded IC50?
result: 100 to 500 nM

query: Consider the compound shown here: O=c1cc(N2CCOCC2)cc(-c2cccc3c2Sc2ccc(NC4CCN(C5CCOCC5)C4)cc2S3)[nH]1 (stereo not drawn) [Example 1-24-13] What is its recorded IC50?
result: 100 to 500 nM

Origin of measurements: patent US9586951B2
